Provenance of the data: patent EP0562849A2

System: human LDL receptor promoter
EXPERIMENT SUMMARY: in vitro Luciferase Activity Test (LDL receptor promoter-luciferase reporter in recombinant CHO cells)
Format: cell-based
ASSAY CONDITIONS: relative effective dose compared to compound of Example 4; below one = more active; 15% luciferase activity cutoff point (footnote 2)
MEASURED QUANTITY: RED
Output: the number by itself.

Quick one: give measured RED for CC(C)CCC[C@@H](C)[C@H]1CC[C@H]2[C@@H]3CCC4[C@H](Cc5ccc(Cl)c(Cl)c5)[C@H](O)CC[C@]4(C)[C@H]3CC[C@]12C (stereo partly shown) 4.0

Return reported RED. Input compound: "C=CC[C@@H]1C(=O)/C(=C/O)C[C@]2(C)[C@H]3CC[C@]4(C)[C@@H]([C@H](C)CCCC(C)C)CC[C@H]4[C@@H]3CC[C@@H]12" 0.97

Give RED for CC(C)CCC[C@@H](C)[C@H]1CC[C@H]2[C@@H]3CCC4[C@H](Cc5ccc(O)cc5)[C@H](O)CC[C@]4(C)[C@H]3CC[C@]12C (stereo partly shown) [Example 36, 4a-(4-hydroxybenzyl)cholestan-3a-ol] 17.6

Hello, please tell me recorded RED for this one: CC(C)CCC[C@@H](C)[C@H]1CC[C@H]2[C@@H]3CCC4[C@H](Cc5ccc(OCc6ccccc6)cc5)[C@H](O)CC[C@]4(C)[C@H]3CC[C@]12C (stereo partly shown) 3.8

Hello, please tell me recorded RED for this one: C=CC[C@H]1C2CC[C@@H]3[C@H](CC[C@]4(C)C(OCCCC(C)(C)C)CC[C@@H]34)[C@@]2(C)CC[C@H]1O (stereo partly shown) 20.5

State its RED: CC(C)CCC[C@@H](C)[C@H]1CC[C@H]2[C@@H]3CCC4[C@H](Cc5ccc(C(=O)O)cc5)[C@H](O)CC[C@]4(C)[C@H]3CC[C@]12C (stereo partly shown) 2.1

Complete the entry with RED for "C=CC[C@H]1C2=CC[C@H]3[C@@H]4CC[C@H]([C@H](C)CCCC(C)C)[C@@]4(C)CC[C@@H]3[C@@]2(C)CC[C@H]1O" 1.0

* * *

Tested on: Syrian Golden hamsters
EXPERIMENT SUMMARY: In vivo serum cholesterol lowering in hamsters fed a cholesterol test diet
ASSAY CONDITIONS: hamsters, 0.2% (w/w) in diet for one week (100 mg/kg/day); negative values = serum cholesterol increased relative to control
MEASURED QUANTITY: Percent Lowering of Cholesterol from Control Value Mean (%)
State just the number; it will be interpreted in %.

For the compound CC(C)CCC[C@@H](C)[C@H]1CC[C@H]2[C@@H]3CCC4[C@H](Cc5ccccc5)C(=O)CC[C@]4(C)[C@H]3CC[C@]12C (stereo partly shown) [(19), 4a-benzylcholestan-3-one] , report Percent Lowering of Cholesterol from Control Value Mean. 7.5

Name the recorded Percent Lowering of Cholesterol from Control Value Mean of the item "C=CC[C@@H]1[C@H](O)CC[C@@]2(C)[C@H]1CC[C@@H]1[C@@H]2CC[C@]2(C)[C@@H]([C@H](C)CCCC(C)C)CC[C@@H]12" in your answer. 41.4

Answer with the recorded Percent Lowering of Cholesterol from Control Value Mean of CC(C)CCC[C@@H](C)[C@H]1CC[C@H]2[C@@H]3CCC4[C@H](Cc5ccccc5)C(=O)CC[C@]4(C)[C@H]3CC[C@]12C (stereo partly shown) [(5), 4a-benzylcholestan-3-one] only. 40.2

Tell me its Percent Lowering of Cholesterol from Control Value Mean given "C=CC[C@@H]1[C@H](OC(=O)CCCCCCCCCCCCCCCCC)CC[C@@]2(C)[C@H]1CC[C@@H]1[C@@H]2CC[C@]2(C)[C@@H]([C@H](C)CCCC(C)C)CC[C@@H]12" as the entry. 2.7

* * *

Can you tell me Emax for the items I'm about to list?
Tested on: human LDL receptor promoter
EXPERIMENT SUMMARY: in vitro Luciferase Activity Test (LDL receptor promoter-luciferase reporter in recombinant CHO cells)
Type: cell-based
ASSAY CONDITIONS: Homo sapiens, CHO, maximum activity (%) over control; 15% luciferase activity cutoff point (footnote 2); read-out: MA%
Description: A 1546 base pair sequence of the human LDL receptor promoter was amplified using the polymerase chain reaction. […]
The reply should be a number in %, with the unit left off.

Find Emax for COC(=O)c1ccc(C[C@H]2C3CC[C@H]4[C@@H]5CC[C@H]([C@H](C)CCCC(C)C)[C@@]5(C)CC[C@@H]4[C@@]3(C)CC[C@H]2O)cc1 (some centres unmarked) [Example 29] on human LDL receptor promoter and write it down. 37

Look up and report Emax, with human LDL receptor promoter as system, for CCCC[C@@H]1[C@H](O)CC[C@@]2(C)[C@H]1CC[C@@H]1[C@@H]2CC[C@]2(C)[C@@H]([C@H](C)CCCC(C)C)CC[C@@H]12 [Example 7, [4a,5a]-4-butylcholestan-3a-ol] 46

Enter measured Emax, system human LDL receptor promoter, for the compound shown: CC(C)CCC[C@@H](C)[C@H]1CC[C@H]2[C@@H]3CCC4[C@H](Cc5ccc(Cl)c(Cl)c5)[C@H](O)CC[C@]4(C)[C@H]3CC[C@]12C (some centres unmarked) [Example 27, 4a-(3,4-dichlorobenzyl)cholestan-3a-ol] 32

Look up and report measured Emax (human LDL receptor promoter) for the following compound: CC(C)CCC[C@@H](C)[C@H]1CC[C@H]2[C@@H]3CCC4[C@H](Cc5ccc(OCc6ccccc6)cc5)[C@H](O)CC[C@]4(C)[C@H]3CC[C@]12C (some centres unmarked) [Example 32, 4a-(4-benzyloxybenzyl)cholestan-3a-ol] 36

Enter Emax (test system human LDL receptor promoter) for CC(C)CCC[C@@H](C)[C@H]1CC[C@H]2[C@@H]3CCC4[C@H](Cc5ccc(Cl)cc5)[C@H](O)CC[C@]4(C)[C@H]3CC[C@]12C (some centres unmarked) [Example 31, 4a-(4-chlorobenzyl)cholestan-3a-ol] 46

* * *

Task for the reader: assign each of the following molecules its reported RED.
Tested on: human LDL receptor promoter
EXPERIMENT SUMMARY: in vitro Luciferase Activity Test (LDL receptor promoter-luciferase reporter in recombinant CHO cells)
Format: cell-based
ASSAY CONDITIONS: relative effective dose compared to compound of Example 4; below one = more active; 30% luciferase activity cutoff point (footnote 1)
// return a plain number; no unit text

In one line, give reported RED of the entry "C=C(Br)C[C@@H]1[C@H](O)CC[C@@]2(C)[C@H]1CC[C@@H]1[C@@H]2CC[C@]2(C)[C@@H]([C@H](C)CCCC(C)C)CC[C@@H]12" . 0.43

Determine its reported RED: C[C@H](CCCN(C)C)[C@H]1CC[C@H]2[C@@H]3CC[C@@H]4C[C@H](O)CC[C@]4(C)[C@H]3CC[C@]12C [Example 51, 3a-hydroxy-25-azacoprostane] 1.13

Could you please provide reported RED for "C=CC[C@@H]1[C@H](O)CC[C@@]2(C)[C@H]1CC[C@@H]1[C@@H]2CC[C@]2(C)[C@@H]([C@H](C)CC[C@@H](CC)C(C)C)CC[C@@H]12" ? Thanks! 0.73

Please give the documented RED of "C/C=C/C[C@@H]1[C@@H](NC(C)=O)CC[C@@]2(C)[C@H]1CC[C@@H]1[C@@H]2CC[C@]2(C)[C@@H]([C@H](C)CCCC(C)C)CC[C@@H]12" 4.5

Check the records and state RED for "C=CC[C@@H]1[C@H](O)CC[C@@]2(C)[C@H]1CC[C@@H]1[C@@H]2CC[C@]2(C)[C@@H]([C@H](C)/C=C/[C@@H](CC)C(C)C)CC[C@@H]12" 2.0

Indicate the recorded RED value for this molecule: "C/C=C/C[C@@H]1C(=O)CC[C@]2(C)[C@H]3CC[C@]4(C)[C@@H]([C@H](C)CCCC(C)(C)O)CC[C@H]4[C@@H]3CC[C@@H]12" 0.97

* * *

System: Syrian Golden hamsters
EXPERIMENT SUMMARY: In vivo serum cholesterol lowering in hamsters fed a cholesterol test diet
ASSAY CONDITIONS: hamsters, 0.2% (w/w) in Cholesterol Test Diet for one week, equivalent to 100 mg/kg/day; groups of six; control mean 337
MEASURED QUANTITY: Serum Cholesterol Mean
Please answer using a numeric value trailed by its unit.

Answer with reported Serum Cholesterol Mean of C=CC[C@@H]1[C@@H](O)CC[C@@]2(C)[C@H]1CC[C@@H]1[C@@H]2CC[C@]2(C)[C@@H]([C@H](C)CCCC(C)C)CC[C@@H]12 [Example 80] 269 mg/dL

Return reported Serum Cholesterol Mean. Input compound: C=CC[C@H]1C2CC[C@@H]3[C@H](CC[C@]4(C)C(OCc5ccccc5)CC[C@@H]34)[C@@]2(C)CC[C@H]1O (stereo partly shown) [Example 68] 309 mg/dL

Retrieve Serum Cholesterol Mean measured for CC(C)CCC[C@@H](C)[C@H]1CC[C@H]2[C@@H]3CCC4[C@H](Cc5ccccc5)C(=O)CC[C@]4(C)[C@H]3CC[C@]12C (stereo partly shown) [(19), 4a-benzylcholestan-3-one] and print it. 312 mg/dL

Provide only the value of recorded Serum Cholesterol Mean for C=CC[C@@H]1[C@H](O)CC[C@@]2(C)[C@H]1CC[C@@H]1[C@@H]2CC[C@]2(C)[C@@H]([C@H](C)CCCC(C)C)CC[C@@H]12 [(4)] 198 mg/dL

Identify Serum Cholesterol Mean associated with the compound C=CC[C@@H]1[C@H](N)CC[C@@]2(C)[C@H]1CC[C@@H]1[C@@H]2CC[C@]2(C)[C@@H]([C@H](C)CCCC(C)C)CC[C@@H]12 [Example 86] 464 mg/dL

Give the reported value of Serum Cholesterol Mean for this record: C=CC[C@@H]1[C@H](NC(C)=O)CC[C@@]2(C)[C@H]1CC[C@@H]1[C@@H]2CC[C@]2(C)[C@@H]([C@H](C)CCCC(C)C)CC[C@@H]12 [Example 81] 364 mg/dL

Assign Serum Cholesterol Mean to the following record: CC(C)CCC[C@@H](C)[C@H]1CC[C@H]2[C@@H]3CCC4[C@H](Cc5ccccc5)C(=O)CC[C@]4(C)[C@H]3CC[C@]12C (stereo partly shown) [(5), 4a-benzylcholestan-3-one] 202 mg/dL
